- Test system: P388 leukemia ip, CD2F1 mice, survival T/C
- measurement description: NCI In Vivo Anticancer Drug Screen. Data for tumor model P388 Leukemia (intraperitoneal) in CD2F1 (CDF1) mice
- conditions: endpoint: median survival time; dose: 200.0 mg/kg/injection; schedule: Q01DX009 (ip); vehicle: Klucel (hydroxypropylcellulose) (HPC); higher = longer survival
Toxic doses and inconclusive results are not listed.
measurement name: T/C

[[record]]
smiles_data = "NOCc1ccccc1"
measurement_name = "T/C"
experimental_result = "86 % of control"

[[record]]
smiles_data = "CN(C)/N=C1\\C(=O)Nc2ccc(Br)cc21"
measurement_name = "T/C"
experimental_result = "108 % of control"

[[record]]
smiles_data = "Cc1cc(N=Nc2ccc(O)cc2C(=O)O)c([N+](=O)[O-])cc1C"
measurement_name = "T/C"
experimental_result = "104 % of control"

[[record]]
smiles_data = "O=C1c2ccccc2S(=O)(=O)N1CCN(CCN1C(=O)c2ccccc2S1(=O)=O)c1ccccc1"
measurement_name = "T/C"
experimental_result = "100 % of control"

[[record]]
smiles_data = "CC(=O)OC1(c2nccc3ccccc23)CCN(Cc2ccccc2)CC1"
measurement_name = "T/C"
experimental_result = "102 % of control"


Query :: For the molecule `O=c1c2nccnc2nc2n1CCCS2` , what T/C is on record?
Result :: 100 % of control

Query :: Again, but for `COc1nc(Nc2cccc(F)c2)nc(OC)n1`
Result :: 101 % of control

Query :: Again, but for `[N-]=[N+]=N[Si](c1ccccc1)(c1ccccc1)c1ccccc1`
Result :: 103 % of control

###

- Tested on: P388 leukemia ip, CD2F1 mice, survival T/C
- measurement description: NCI In Vivo Anticancer Drug Screen. Data for tumor model P388 Leukemia (intraperitoneal) in CD2F1 (CDF1) mice
- conditions: endpoint: median survival time; dose: 50.0 mg/kg/injection; schedule: Q01DX001 (ip); vehicle: Klucel (hydroxypropylcellulose) (HPC); higher = longer survival
Toxic doses and inconclusive results are not listed.
measurement name: T/C

[[record]]
compound = "COC(=O)/C=C\\C=[N+](/[O-])C(C)(C)C"
target_of_assay = "P388 leukemia ip, CD2F1 mice, survival T/C"
measurement_name = "T/C"
experimental_result = "113 % of control"

[[record]]
compound = "O=C(c1ccccc1)C(c1ccccc1)n1nc2c(c1-c1ccccc1)CCC2 (centres undefined)"
target_of_assay = "P388 leukemia ip, CD2F1 mice, survival T/C"
measurement_name = "T/C"
experimental_result = "98 % of control"

[[record]]
compound = "Cn1c2ccccc2c2cnn3cnnc3c21"
target_of_assay = "P388 leukemia ip, CD2F1 mice, survival T/C"
measurement_name = "T/C"
experimental_result = "91 % of control"


# next compound below
Query :: For the compound COc1ccccc1/C=C\C1=CC(=O)CC(c2ccccc2OC)C1C (centres undefined) , what T/C is on record?
Result :: 104 % of control

###

- Tested on: P388 leukemia ip, CD2F1 mice, survival T/C
- measurement description: NCI In Vivo Anticancer Drug Screen. Data for tumor model P388 Leukemia (intraperitoneal) in CD2F1 (CDF1) mice
- conditions: endpoint: median survival time; dose: 120.0 mg/kg/injection; schedule: Q01DX005 (ip); vehicle: saline with Tween-80; higher = longer survival
Inconclusive results and toxic doses are left out.
measurement name: T/C

Query :: For the molecule CC(=O)c1cc(Cl)ccc1OCC(O)CNc1ccccc1C(=O)c1ccccc1 (configuration not stated) , what T/C is on record?
Result :: 87 % of control

Query :: Again, but for O=C1CSC(c2cccc(Cl)c2)N1c1nncs1 (configuration not stated)
Result :: 97 % of control

Query :: Again, but for CN1C(=O)CCC1c1nc2ccccc2[nH]1 (configuration not stated)
Result :: 101 % of control

Query :: Again, but for `Cc1c(Cl)cccc1-n1c(=O)c2[nH]c3ccccc3sc=2c1=O`
Result :: 92 % of control

Query :: Again, but for `CC(=O)OCCOCNC(=S)NN`
Result :: 101 % of control

Query :: Again, but for `CCCCOC(=O)NC(=O)c1cc2ccc(N(CC)CC)cc2oc1=O`
Result :: 87 % of control

Query :: Again, but for O=C(c1ccccc1)c1ccccc1NCC(O)COc1cccc2ccccc12 (configuration not stated)
Result :: 92 % of control

Query :: Again, but for `O=C(Nc1cc(-c2ccccc2)nn1-c1ccccc1)c1ccccc1F`
Result :: 103 % of control

Query :: Again, but for `O=c1ccnc(Nc2ccc[nH]c2=S)[nH]1`
Result :: 105 % of control

Query :: Again, but for CC1=CC(S)NC(=S)N1 (configuration not stated)
Result :: 105 % of control

Query :: Again, but for `CC1=CC(C)(C)Nc2ccc(OC(=O)/C=C(C)/C=C/C=C(C)/C=C/C3=C(C)CCCC3(C)C)cc21`
Result :: 91 % of control

Query :: Again, but for `Cc1cccc(NC(=O)Oc2ccc(Cl)cc2C(=O)c2ccccc2)c1`
Result :: 98 % of control
